# tgt: UniProt P43003
# Sequence (P43003 whole entry): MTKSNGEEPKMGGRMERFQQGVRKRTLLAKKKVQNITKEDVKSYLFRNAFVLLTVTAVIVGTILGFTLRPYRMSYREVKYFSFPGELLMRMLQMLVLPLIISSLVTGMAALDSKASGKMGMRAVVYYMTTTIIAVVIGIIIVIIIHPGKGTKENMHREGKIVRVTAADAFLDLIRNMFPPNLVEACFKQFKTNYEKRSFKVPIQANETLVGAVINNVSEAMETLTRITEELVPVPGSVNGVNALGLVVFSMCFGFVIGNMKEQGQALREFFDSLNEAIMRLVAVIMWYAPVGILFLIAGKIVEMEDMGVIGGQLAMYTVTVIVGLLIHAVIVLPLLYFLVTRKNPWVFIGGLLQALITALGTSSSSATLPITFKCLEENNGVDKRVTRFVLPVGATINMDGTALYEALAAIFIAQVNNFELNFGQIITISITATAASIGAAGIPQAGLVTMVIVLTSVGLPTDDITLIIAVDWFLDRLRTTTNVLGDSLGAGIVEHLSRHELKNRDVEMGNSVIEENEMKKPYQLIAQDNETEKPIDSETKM
# assay_overview: Inhibition of human EAAT1 expressed in HEK293 cells assessed as inhibition of 3[H]-D-Aspartate uptake after 6 mins by scintillation counting method
# Format: cell-based
# details: read-out: IC50
Reported IC50 values for a set of compounds

{"compound": "N#CC1=C(N)OC2=C(C(=O)CC(c3ccccc3)C2)C1c1ccccc1 (stereo not given)", "tgt": "UniProt P43003", "relation_operator": "=", "IC50 (µM)": 3.9}
{"compound": "CC1(C)C(C#N)=C(N)OC2=C1C(=O)CC(c1ccccc1)C2 (stereo not given)", "tgt": "UniProt P43003", "relation_operator": ">", "IC50 (µM)": 300}
{"compound": "CC1C(C#N)=C(N)OC2=C1C(=O)CC(c1cccc3ccccc13)C2 (stereo not given)", "tgt": "UniProt P43003", "relation_operator": "=", "IC50 (µM)": 0.42}
{"compound": "N#CC1=C(N)OC2=C(C(=O)NC(c3ccccc3)C2)C1c1ccccc1 (stereo not given)", "tgt": "UniProt P43003", "relation_operator": ">", "IC50 (µM)": 300}
{"compound": "N#CC1=C(N)OC2=C(C(=O)OC(c3ccccc3)C2)C1c1ccccc1 (stereo not given)", "tgt": "UniProt P43003", "relation_operator": ">", "IC50 (µM)": 300}
